test system: VchCAST RNA-guided transposition machinery (E. coli BL21(DE3) host, lacZ target); test: relative integration efficiency (T-LR orientation) vs wild-type transposon end (log2 (normalized fold change)); transposon end mutated: right end (5 bp flank + 75 bp right end); higher = more efficient transposition
Listed here are sequences together with their documented relative integration efficiency (log2).

| biopolymer.sequence | relative integration efficiency (log2) |
| --- | --- |
| ACATTTGTTCATACAACCATAAAATGATAATTCACCCATAAATTGATAATTATCACACCCCAATTTAACTATAACGCTCTGATCATAGTCAGACCAACATTGCTACGACCCGTATTCGCACCGACAC | -0.502 |
| ACATTTGTTGATACAACCATAAAATGATAATTAATAATTATTTATAATCAGCAACTTAACCACCCATAAATTGATAATTATCAACAAACGCCCGGTCGCGGTACTCTGATCATAGTCAGACCAACAT | 0.501 |
| ACATTTGTTGATACAACCATATATTGATATCTCCAACCATAAGTTGATATTTTTCAGTGGGTATTTAACTATAACGCTCTGATCATAGTCAGACCAACATTGCTACGACCCGTATTCGCACCGACAC | 2.47 |

---

system: VchCAST RNA-guided transposition machinery (E. coli BL21(DE3) host, lacZ target); experiment: relative integration efficiency (T-RL orientation) vs wild-type transposon end (log2 (normalized fold change)); transposon end mutated: right end (5 bp flank + 75 bp right end); higher = more efficient transposition
Documented relative integration efficiency (log2) across a set of sequences

| biopolymer.sequence | relative integration efficiency (log2) |
| --- | --- |
| ACATTTGTTGATACAACCATAAAATGATAATTAATAATTACACCCATAAATTGATAATTATCAACAAACGCCCGGTCGCGGTACTCTGATCATAGTCAGACCAACATTGCTACGACCCGTATTCGCA | -2.18 |
| ACATTTGTTGATACAACCATAAAATGATAATTACACCGTTAAATTGATAATTATCACACCCATAAATTGATATTGCCTCTGATCATAGTCAGACCAACATTGCTACGACCCGTATTCGCACCGACAC | -0.609 |
| ACATTTGTTGATACAACCATCCCCGTCGCCGGCACAAACGCCCGGTCGCCGGCGACACAAACGCCCGGTCGCGGTAAGAGGATCATAGTCAGACCAACATTGCTACGACCCGTATTCGCACCGACAC | -7.49 |
| ACATTTGTTGATACAACCATAAAATGATAATTACACCCATAAATTGATAATTTAGTCACCCATAAATTGATATTGCCTCTGATCATAGTCAGACCAACATTGCTACGACCCGTATTCGCACCGACAC | -0.447 |
| ACATTTGTTGATACAACCATAAATTGATAATTACACCCATAAAATGATAATTATCACACCCATAAAATGATATTGCCTCTGATCATAGTCAGACCAACATTGCTACGACCCGTATTCGCACCGACAC | -0.12 |
| ACATTTGTTGATACACCCATAAATTGATATTGCCAACCATAAAGTGATATTTATCACACCCATAAATTGATAATTACTCTGATCATAGTCAGACCAACATTGCTACGACCCGTATTCGCACCGACAC | -0.649 |
| ACATTTGTTGATACAACCATACCCGGATAATTACACCCATACCGGGATAATTATCACACCCATACCGGGATATTGCCTCTGATCATAGTCAGACCAACATTGCTACGACCCGTATTCGCACCGACAC | -6.7 |
| ACATTTGTTGATACCACCATCAAATGGTAATTCCACCCCTAAATTGATAATTATCACACCCAATTTAACTATAACGCTCTGATCATAGTCAGACCAACATTGCTACGACCCGTATTCGCACCGACAC | -6.33 |
| ACATTTGTTCATACAACCCTAAAATGATAATTACACCCATAAATTGATAATTATCACCCCCAATTTAACTATAACGCTCTGATCATAGTCAGACCAACATTGCTACGACCCGTATTCGCACCGACAC | -2.74 |
| ACATTAGTCGATACAACCATAAAATGATAATTACACCCATAAATGGATAATTATCACACCCAATTTAACTATAACGCTCTGATCATAGTCAGACCAACATTGCTACGACCCGTATTCGCACCGACAC | -6.76 |
| ACATTTGTTGATACAACCATAAGTTGATATTTTCACCCATAAATTGATATTGCTCACACCCATAAATTGATATTGCCTCTGATCATAGTCAGACCAACATTGCTACGACCCGTATTCGCACCGACAC | -0.468 |
| ACATTTGTCGATACAACCATAAAATGATAATTACACCCATAAATTGATAATTATCACCCCCAATTTAACTATAACGCTCTGATCATAGTCAGACCAACATTGCTACGACCCGTATTCGCACCGACAC | -0.936 |
| ACATTTGTTGATACCACCATCAAATGGTAATTACACCCATACATTGATAATTATCACACCCAATTTAACTATAACGCTCTGATCATAGTCAGACCAACATTGCTACGACCCGTATTCGCACCGACAC | -5.6 |
| ACATTAGTGGATACAACCATAAAATGATAATTACACCCATAAATGGATCATTATCACACCCAATTTAACTATAACGCTCTGATCATAGTCAGACCAACATTGCTACGACCCGTATTCGCACCGACAC | -6.91 |
| ACATTTGTTGATACCACCATCAAATGATAATTACACCCATAAATTGATAATTATCACACCCAATTTAACTATAACGCTCTGATCATAGTCAGACCAACATTGCTACGACCCGTATTCGCACCGACAC | -1.91 |

---

Consider the following sequences and their measured relative integration efficiency (log2) readings.
tested on: VchCAST RNA-guided transposition machinery (E. coli BL21(DE3) host, lacZ target); test: relative integration efficiency (T-RL orientation) vs wild-type transposon end (log2 (normalized fold change)); transposon end mutated: right end (5 bp flank + 75 bp right end); higher = more efficient transposition
value.kind: relative integration efficiency (log2)

| biopolymer.sequence | system | value.kind | meas.value |
| --- | --- | --- | --- |
| ACATTTGTTGATACAACCATAAAATGATAATTACACCCATAAATTGATAATTATCACACCCATAAATTTCGCGGTAAGAGGATCATAGTCAGACCAACATTGCTACGACCCGTATTCGCACCGACAC | VchCAST RNA-guided transposition machinery (E. coli BL21(DE3) host, lacZ target) | relative integration efficiency (log2) | -0.719 |
| ACATTTGTTGATAACCAACGCCCCGTCGCCGGCCACCCATAAATTGATAATTATCACACCCATAAATTGATATTGCCTCTGATCATAGTCAGACCAACATTGCTACGACCCGTATTCGCACCGACAC | VchCAST RNA-guided transposition machinery (E. coli BL21(DE3) host, lacZ target) | relative integration efficiency (log2) | -7.56 |
| ACATTTGTTGATACAACCATAAAATGATAATTACCCCCATAAATTGATAATGATGACACCGAATTTAACTATAACGCTCTGATCATAGTCAGACCAACATTGCTACGACCCGTATTCGCACCGACAC | VchCAST RNA-guided transposition machinery (E. coli BL21(DE3) host, lacZ target) | relative integration efficiency (log2) | -1.63 |
| ACATTTGTTGATACAACCATAAAGTGATATTTACAACCATAAAATGATAATTATCACACCCATAAATTGATATTGCCTCTGATCATAGTCAGACCAACATTGCTACGACCCGTATTCGCACCGACAC | VchCAST RNA-guided transposition machinery (E. coli BL21(DE3) host, lacZ target) | relative integration efficiency (log2) | -0.00564 |

---

relative integration efficiency (log2) overview
system: VchCAST RNA-guided transposition machinery (E. coli BL21(DE3) host, lacZ target); experiment: relative integration efficiency (T-RL orientation) vs wild-type transposon end (log2 (normalized fold change)); transposon end mutated: right end (5 bp flank + 75 bp right end); higher = more efficient transposition
value.kind: relative integration efficiency (log2)

| biopolymer.sequence | meas.value |
| --- | --- |
| ACATTTGTTGATACAACCATAAAATGATTTAATCACCCATAAATTGATTTAATTCACACCCATAAATTGATTAACGCTCTGATCATAGTCAGACCAACATTGCTACGACCCGTATTCGCACCGACAC | -1.13 |
| ACATTTGTTGATACAACCATAAAATGATAATTAATAATTCACCCATAAATTGATAATTATCAACAAACGCCCGGTCGCGGTACTCTGATCATAGTCAGACCAACATTGCTACGACCCGTATTCGCAC | -1.96 |
| ACATTTGTTGATACCACCATAAAATGGTAATTACACCCCTACATTGATAATTATCACACCCAATTTAACTATAACGCTCTGATCATAGTCAGACCAACATTGCTACGACCCGTATTCGCACCGACAC | -4.23 |
| ACATTTGTTGATACAACCATAAAATGATAATTACACCCATAAATTGATAATTATCACACCCATAAATTGATATTGCCTCTGTTGACGGCTAGCTCAGTCCTAGGTATAGTGCTAGCCGCACCGACAC | -0.43 |
| ACATTTGTCGATACAACCCTAAAATGATAATTACACCCATAAATTCATAATTATCACCCCCAATTTAACTATAACGCTCTGATCATAGTCAGACCAACATTGCTACGACCCGTATTCGCACCGACAC | -4.67 |
| ACATTTGTTGATACTTCCATAAAATGATAATTACACCCATAAATTGATAATTATCACACCCATAAATTGATATTGCCTCTGATCATAGTCAGACCAACATTGCTACGACCCGTATTCGCACCGACAC | -0.637 |
| ACATAAGTTGATACAACCATAAAATGATAATTACACCCATAAATTGATAATTATCACACCCATAAATTGATATTGCCTCTGATCATAGTCAGACCAACATTGCTACGACCCGTATTCGCACCGACAC | -6.62 |
| ACATTTGTCGATCCAACCATAAAATGATAATTACACCCATAAATTGATAATTATCACACCCAATTTAACTATAACGCTCTGATCATAGTCAGACCAACATTGCTACGACCCGTATTCGCACCGACAC | -0.969 |
| ACATTTGTTGATACAACCATAAAATGATAATTACAGGGTTAAATTGATAATTATCACACCCATAAATTGATATTGCCTCTGATCATAGTCAGACCAACATTGCTACGACCCGTATTCGCACCGACAC | -1.5 |
| ACATTTGTTGATACAACCATAAAAAGATAATTACACCCATAAATAGATAATTATCACACCCATAAATAGATATTGCCTCTGATCATAGTCAGACCAACATTGCTACGACCCGTATTCGCACCGACAC | -1.3 |
| ACATTGGTGGATACAACCATAAAATGATAATTACACCCATAAATGGATCATTATCACACCCAATTTAACTATAACGCTCTGATCATAGTCAGACCAACATTGCTACGACCCGTATTCGCACCGACAC | -7.25 |
| ACATTTGTTGATACAACCATCAAATGGTAATTACACCCATAAATTGATAATTATCACACCCAATTTAACTATAACGCTCTGATCATAGTCAGACCAACATTGCTACGACCCGTATTCGCACCGACAC | -0.349 |
| ACATTTGTTGATATAATTATCATTTTATGGTTGTAATTATCATTTTATGGTTGTCACAACCATAAAATGATAATTACTCTGATCATAGTCAGACCAACATTGCTACGACCCGTATTCGCACCGACAC | -6.26 |
| ACATTTGTTGATACAACCATAAGTTGATATTTTCAACCATAAAGTGATATTTATCACAACCATAAGTTGATATTTTCTCTGATCATAGTCAGACCAACATTGCTACGACCCGTATTCGCACCGACAC | 0.119 |
| ACATTTGTTGATACAACCATAAAATGATAATTACACCCATAAATTGCGAATTATCACACCCATAAATTGATATTGCCTCTGATCATAGTCAGACCAACATTGCTACGACCCGTATTCGCACCGACAC | -0.354 |
